Biological target: T1, mouse PAI-1 (mouse, UniProt P22777 24-401)
T1 sequence: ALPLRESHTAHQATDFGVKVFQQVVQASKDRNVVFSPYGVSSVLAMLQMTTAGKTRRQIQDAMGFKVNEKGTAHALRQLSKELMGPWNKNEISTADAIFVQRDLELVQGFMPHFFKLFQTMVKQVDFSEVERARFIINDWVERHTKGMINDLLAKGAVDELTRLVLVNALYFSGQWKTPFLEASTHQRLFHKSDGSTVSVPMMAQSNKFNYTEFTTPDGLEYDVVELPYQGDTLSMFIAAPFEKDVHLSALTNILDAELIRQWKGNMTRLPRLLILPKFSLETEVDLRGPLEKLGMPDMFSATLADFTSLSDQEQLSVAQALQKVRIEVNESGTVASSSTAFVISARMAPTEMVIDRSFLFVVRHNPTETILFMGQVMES
Experiment: cell-based or functional assay
measured.endpoint: Chromogenic (IC50 in nM) mouse
Provide only the numeric value, understood in nM.

Read the entry Antibody 06 scFv (scFv) QVQLQQSGAEVKKPGSSVKVSCKASGGTFSSYAISWVRQAPGQGLEWMGGIIPTFGTANYAQKFQGRVTITADESTSTAYMELSGLRSEDTAVYYCAREKRQWLEGHFDYWGRGTPVTVSSDIQMTQSPSFLSASIGDRVTITCRASEGIYHELAWYQQKPGKAPKLLIYRASSLASGAPSRFSGSGSGTDFTLTISSLQPDDFATYYCQQYSNYPLTFGRGTKLEIK and write its reported Chromogenic (IC50 in nM) mouse. 48.2

Read the entry Antibody 25 scFv (scFv) QVQLQQSGAEVKKPGSSVKVSCKASGGTFSSYAISWVRQAPGQGLEWMGGIIPTFGTANYAQKFQGRVTITADESTSTAYMELSGLRSEDTAVYYCARERRQWLEGHFDYWGQGTPVTVSSDIQMTQSPSFLSASIGDRVTITCRASESIYHELAWYQQKPGKAPKLLIYKASSLASGAPSRFSGSGSGTAFTLTISSLQPDDFATYYCQQYSNYPLTFGGGTKLEIK and write its reported Chromogenic (IC50 in nM) mouse. 172

Read the entry Antibody 26 scFv (scFv) QVQLQQSGAEVKKPGTSVKVSCKASGGTFSSYAISWVRQAPGQGLEWMGGIIPIFGTANYAQKFQGRVTITADESTSTAYMELSSLRSEDTAVYYCAREKRQWLEGHFDYWGRGTPVTVSSDIQMTQSPSFLSASIGDRVTITCRASEGIYHTLAWYQQKPGKAPKLLIYRASSLASGAPSRFSGSGSGTDFTLTISSLQPDDFATYYCQQYSNYPLTFGGGTKLEIK and write its reported Chromogenic (IC50 in nM) mouse. 211
